test: Further oral pharmacokinetic study in female Balb/c mice, 5, 10 and 20 mg/kg; details: mouse, plasma, 10 mg/kg, Tmax, Median, 10 mg/kg single oral dose
readoutKind: Tmax (h)

molecule: CC[C@H]1OC(=O)[C@@](C)(F)C(=O)[C@H](C)[C@@H](O[C@@H]2O[C@H](C)C[C@H](N(C)C)[C@H]2O)[C@](C)(OC)C[C@@H](C)C(=O)[C@H](C)[C@H]2N(CCCCn3cc(-c4cccc(N)c4)nn3)C(=O)O[C@]12C [Form II, solithromycin]
readoutKind: Tmax
readoutNumber: 1

====

assay: in vivo; details: female, Balb/c, mouse, po, 100 mg/kg
readoutKind: concentration at 0.5 h

compound: CC[C@H]1OC(=O)[C@@](C)(F)C(=O)[C@H](C)[C@@H](O[C@@H]2O[C@H](C)C[C@H](N(C)C)[C@H]2O)[C@](C)(OC)C[C@@H](C)C(=O)[C@H](C)[C@H]2N(CCCCn3cc(-c4cccc(N)c4)nn3)C(=O)O[C@]12C [Form I, solithromycin]
result: 11600 ng/mL

Taken from patent US8759500B2.
